Target: human PD-L1 / Human PD-1 (Homo sapiens (Human), UniProt Q9NZQ7)
Sequence (Q9NZQ7 19-239): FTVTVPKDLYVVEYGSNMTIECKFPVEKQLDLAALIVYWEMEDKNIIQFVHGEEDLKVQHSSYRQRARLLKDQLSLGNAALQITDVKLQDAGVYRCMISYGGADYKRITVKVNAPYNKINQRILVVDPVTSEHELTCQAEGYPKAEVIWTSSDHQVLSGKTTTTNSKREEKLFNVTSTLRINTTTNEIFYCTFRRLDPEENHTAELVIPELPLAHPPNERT
Assay: Enzyme-Linked Immunosorbent Assay (ELISA), PD-1/PD-L1 binding
Settings: plate-coated human PD-L1, biotinylated human PD-1
Recorded IC50 for the following molecules

Answered cases to consult:
N#Cc1cncc(COc2cc(O[C@H]3CCc4c(-c5cccc(OCCCN6CC7(CC(O)C7)C6)c5Cl)cccc43)c(Cl)cc2CN[C@H]2CCC[C@H]2O)c1: < 5 nM
N#Cc1cncc(COc2cc(O[C@H]3CCc4c(-c5cccc(OCCCN6CC(O)C6)c5Cl)cccc43)c(Cl)cc2CN2CC[C@@H](O)C2)c1: < 5 nM
Cc1c(OCCCN2CCC(C)(F)CC2)cccc1-c1cccc2c1CC[C@@H]2Oc1cc(OCc2cc(C#N)cc(C#N)c2)c(CN2CCC3(C2)NC(=O)NC3=O)cc1Cl (stereo partly drawn): 5 to 500 nM
Cc1c(OCCCN2CCCCC2(C)C)cccc1-c1cccc2c1CC[C@@H]2Oc1cc(OCc2cc(C#N)cc(C#N)c2)c(CN[C@H]2CCC(=O)NC2)cc1Cl: 5 to 500 nM
CC1(F)CCN(CCCOc2cccc(-c3cccc4c3CC[C@@H]4Oc3cc(OCc4cncc(C#N)c4)c(CN4CCC5(C4)NC(=O)NC5=O)cc3Cl)c2Cl)CC1 (stereo partly drawn): 5 to 500 nM

Pending molecule:
-- ask Lookup: IC50 / human PD-L1 / Human PD-1 (Homo sapiens (Human), UniProt Q9NZQ7) / Cc1c(OCCCN2CCC(O)(C(=O)O)CC2)cccc1-c1cccc2c1CC[C@@H]2Oc1cc(OCc2cncc(C#N)c2)c(CN[C@H](C(=O)O)[C@@H](C)O)cc1Cl
-- reply < 5 nM

----------
Target: human PD-L1 / Human PD-1 (Homo sapiens (Human), UniProt Q9NZQ7)
Experiment: Enzyme-Linked Immunosorbent Assay (ELISA), PD-1/PD-L1 binding
Details: plate-coated human PD-L1, biotinylated human PD-1
EXPERIMENTAL ENDPOINT: IC50

N#Cc1cc(C#N)cc(COc2cc(O[C@H]3CCc4c(-c5cccc(OCCCN6CCC(F)CC6)c5Cl)cccc43)c(Cl)cc2CNC[C@H]2CCC(=O)N2)c1: < 5 nM
Cc1c(OCCCN2CCCC2C(C)(C)C)cccc1-c1cccc2c1CC[C@@H]2Oc1cc(OCc2cc(C#N)cc(C#N)c2)c(CN[C@H]2CCC(=O)NC2)cc1Cl (stereo partly shown): 5 to 500 nM
CCOc1cc(O[C@H]2CCc3c(-c4cccc(OCCCN5CCC5(C)C)c4C)cccc32)c(Cl)cc1CN(C)CC(C)(C)C(=O)O: 5 to 500 nM
CCOc1cc(O[C@H]2CCc3c(-c4cccc(OCCCN5CCC5(C)C)c4C)cccc32)c(Cl)cc1CN1CC(C(=O)O)C1: 5 to 500 nM
Cc1c(OCCCN2CCCC2(C)C)cccc1-c1cccc2c1CC[C@@H]2Oc1cc(OCc2cc(C#N)cc(C#N)c2)c(CN[C@H]2CCC(=O)NC2)cc1Cl: < 5 nM

-- ask Which IC50 reading was recorded for the compound CCOc1cc(O[C@H]2CCc3c(-c4cccc(OCCCN5CCC5(C)C)c4C)cccc32)c(Cl)cc1CN(C)CCC(=O)OC(C)C ?
-- reply 5 to 500 nM

-- ask Which IC50 reading was recorded for the compound CC(C)N1CCC(COc2cccc(-c3cccc4c3CC[C@@H]4Oc3cc(OCc4cncc(C#N)c4)c(CN[C@H]4CCC(=O)NC4)cc3Cl)c2Cl)C1 (stereo partly shown) ?
-- reply < 5 nM

----------
Molecular target: human PD-L1 / Human PD-1 (Homo sapiens (Human), UniProt Q9NZQ7)
Test: Enzyme-Linked Immunosorbent Assay (ELISA), PD-1/PD-L1 binding
Details: plate-coated human PD-L1, biotinylated human PD-1
EXPERIMENTAL ENDPOINT: IC50

Answered cases to consult:
Cc1c(OCCCN2CCC(F)CC2)cccc1-c1cccc2c1CC[C@@H]2Oc1cc(OCc2cc(C#N)cc(C#N)c2)c(CNCC(=O)NS(C)(=O)=O)cc1Cl: < 5 nM
N#Cc1cncc(COc2cc(O[C@H]3CCc4c(-c5cccc(OCCCN6CCC(F)CC6)c5Cl)cccc43)c(Cl)cc2CN[C@@H]2CC[C@H]2O)c1: < 5 nM
CCOc1cc(O[C@H]2CCc3c(-c4cccc(OCCCN5CCC5(C)C)c4C)cccc32)c(Cl)cc1CN1CC(C)(C#N)C1: 5 to 500 nM

-- ask Which IC50 reading was recorded for the molecule Cc1c(OCCCN2CCC(C)(O)CC2)cccc1-c1cccc2c1CC[C@@H]2Oc1cc(OCc2cc(C#N)cc(C#N)c2)c(CNC[C@@H]2CCC(=O)N2)cc1Cl ?
-- reply < 5 nM

-- ask Which IC50 reading was recorded for the molecule Cc1c(OCCCN2CCC(F)CC2)cccc1-c1cccc2c1C[C@@H](F)[C@@H]2Oc1cc(OCc2cc(C#N)cc(C#N)c2)c(CN[C@H]2CCC(=O)NC2)cc1Cl ?
-- reply 5 to 500 nM

-- ask Which IC50 reading was recorded for the molecule CCOc1cc(O[C@H]2CCc3c(-c4cccc(OCCCN5CCC[C@H]5C(C)C)c4C)cccc32)c(Cl)cc1CNC[C@@H]1CCC(=O)N1 ?
-- reply 5 to 500 nM

-- ask Which IC50 reading was recorded for the molecule Cc1c(OCCCN2CCC(F)CC2)cccc1-c1cccc2c1CC[C@@H]2Oc1cc(OCc2cc(C#N)cc(C#N)c2)c(CN2CC3(C2)NC(=O)NC3=O)cc1Cl ?
-- reply 5 to 500 nM

-- ask Which IC50 reading was recorded for the molecule Cc1c(OCCCN2CCC(F)CC2)cccc1-c1cccc2c1CC[C@@H]2Oc1cc(OCc2cncc(C#N)c2)c(CNC[C@@H]2CCC(=O)N2)cc1Cl ?
-- reply < 5 nM

-- ask Which IC50 reading was recorded for the molecule CCOc1cc(O[C@H]2CCc3c(-c4cccc(OCCCN5CCC5(C)C)c4C)cccc32)c(Cl)cc1CN1CC[C@@H](C(=O)O)C1 ?
-- reply 5 to 500 nM

-- ask Which IC50 reading was recorded for the molecule Cc1c(OCCCN2CCC(F)CC2)cccc1-c1cccc2c1CC[C@@H]2Oc1cc(OCc2cc(C#N)cc(C#N)c2)c(CN[C@@H]2CCOC[C@H]2O)cc1Cl ?
-- reply < 5 nM

-- ask Which IC50 reading was recorded for the molecule Cc1c(OCCCN2CCC(O)CC2)cccc1-c1cccc2c1CC[C@@H]2Oc1cc(OCc2cncc(C#N)c2)c(CNCC(C)(C)O)cc1Cl ?
-- reply < 5 nM

-- ask Which IC50 reading was recorded for the molecule Cc1c(OCCCN2CCC(F)CC2)cccc1-c1cccc2c1CC[C@@H]2Oc1cc(OCc2cc(C#N)cc(C#N)c2)c(CN[C@@H]2CCC(=O)NC2=O)cc1Cl ?
-- reply 5 to 500 nM

-- ask Which IC50 reading was recorded for the molecule Cc1c(OCCCN2CCC(O)CC2)cccc1-c1cccc2c1CC[C@@H]2Oc1cc(OCc2cncc(C#N)c2)c(CN2CCC(O)CC2)cc1Cl ?
-- reply < 5 nM

----------
Biological target: human PD-L1 / Human PD-1 (Homo sapiens (Human))
Assay: Enzyme-Linked Immunosorbent Assay (ELISA), PD-1/PD-L1 binding
Details: plate-coated human PD-L1, biotinylated human PD-1
EXPERIMENTAL ENDPOINT: IC50

Answered cases to consult:
N#Cc1cncc(COc2cc(O[C@H]3CCc4c(-c5cccc(OCCCN6CC7(CC(O)C7)C6)c5Cl)cccc43)c(Cl)cc2CN2CCCC3(C2)NC(=O)NC3=O)c1 (stereo partly shown): 5 to 500 nM
CCOc1cc(O[C@H]2CCc3c(-c4cccc(OCCCN5CC[C@@H](O)C5)c4C)cccc32)c(Cl)cc1CN[C@@H](CO)C(=O)O: < 5 nM
N#Cc1cncc(COc2cc(O[C@H]3CCc4c(-c5cccc(OCCCN6CC7(CC(F)C7)C6)c5Cl)cccc43)c(Cl)cc2CNC[C@H]2CCC(=O)N2)c1: < 5 nM
Cc1c(OCCCN2CCC(O)CC2)cccc1-c1cccc2c1CC[C@@H]2Oc1cc(OCc2cc(C#N)cc(C#N)c2)c(CN[C@H](C(=O)O)[C@@H](C)O)cc1Cl: < 5 nM
CCOc1cc(O[C@H]2CCc3c(-c4cccc(OCCC(C)(C)N)c4C)cccc32)c(Cl)cc1CN[C@H]1CCC(=O)NC1: 5 to 500 nM
CCOc1cc(O[C@H]2CCc3c(-c4cccc(OCCCN5CCC5(C)C)c4C)cccc32)c(Cl)cc1CNCCc1nnn[nH]1: 5 to 500 nM
N#Cc1cncc(COc2cc(O[C@H]3CCc4c(-c5cccc(OCCCN6CCC(F)CC6)c5Cl)cccc43)c(Cl)cc2CN[C@@H]2CCOC[C@@H]2O)c1: < 5 nM
N#Cc1cncc(COc2cc(O[C@H]3CCc4c(-c5cccc(OCCCN6CC7(CC(F)C7)C6)c5Cl)cccc43)c(Cl)cc2CN2CC3(C2)NC(=O)NC3=O)c1: 5 to 500 nM

-- ask Lookup: IC50 / human PD-L1 / Human PD-1 (Homo sapiens (Human)) / Cc1c(OCCCN2CCC(O)CC2)cccc1-c1cccc2c1CC[C@@H]2Oc1cc(OCc2cncc(C#N)c2)c(CN[C@H](C(=O)O)[C@@H](C)O)cc1Cl
-- reply < 5 nM

-- ask Lookup: IC50 / human PD-L1 / Human PD-1 (Homo sapiens (Human)) / Cc1c(OCCCN2CCC(C)(F)CC2)cccc1-c1cccc2c1CC[C@@H]2Oc1cc(OCc2cncc(C#N)c2)c(CNC[C@@H]2CCC(=O)N2)cc1Cl
-- reply < 5 nM

-- ask Lookup: IC50 / human PD-L1 / Human PD-1 (Homo sapiens (Human)) / CCOc1cc(O[C@H]2CCc3c(-c4cccc(OCCCN5CCC5(C)C)c4C)cccc32)c(Cl)cc1CN1CC[C@@H](C(=O)OC)C1
-- reply 5 to 500 nM

-- ask Lookup: IC50 / human PD-L1 / Human PD-1 (Homo sapiens (Human)) / CCOc1cc(O[C@H]2CCc3c(-c4cccc(OCCCN5CCC5(C)C)c4C)cccc32)c(Cl)cc1CN(C)CCCCC(=O)O
-- reply 5 to 500 nM

-- ask Lookup: IC50 / human PD-L1 / Human PD-1 (Homo sapiens (Human)) / N#Cc1cncc(COc2cc(O[C@H]3CCc4c(-c5cccc(OCCCN6CCC(F)CC6)c5Cl)cccc43)c(Cl)cc2CNCC2CNC(=O)C2)c1 (stereo partly shown)
-- reply < 5 nM

FYI, the data here is from patent US10919852B2.
